pIC50: −log10 of the molar value.
Record: compiled pIC50 on RAC-alpha serine/threonine-protein kinase (Homo sapiens) from multiple reports.
Sequence (P31749 whole entry): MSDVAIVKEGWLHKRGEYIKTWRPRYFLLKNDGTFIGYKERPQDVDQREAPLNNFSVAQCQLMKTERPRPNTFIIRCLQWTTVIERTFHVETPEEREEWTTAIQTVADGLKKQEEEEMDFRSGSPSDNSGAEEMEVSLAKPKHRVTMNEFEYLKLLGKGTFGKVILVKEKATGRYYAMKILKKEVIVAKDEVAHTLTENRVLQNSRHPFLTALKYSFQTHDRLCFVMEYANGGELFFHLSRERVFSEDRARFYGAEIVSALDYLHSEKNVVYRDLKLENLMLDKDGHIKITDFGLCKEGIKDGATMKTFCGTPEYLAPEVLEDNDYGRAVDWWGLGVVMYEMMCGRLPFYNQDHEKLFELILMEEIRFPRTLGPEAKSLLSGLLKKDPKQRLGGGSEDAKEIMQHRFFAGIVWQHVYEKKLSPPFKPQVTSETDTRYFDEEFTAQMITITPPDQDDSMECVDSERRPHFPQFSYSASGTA

Use these answered entries as a reference point.
1. COc1cc(Nc2c(C#N)cnc3cc(/C=C/CCN4CCN(C)CC4)c(OC)cc23)c(Cl)cc1Cl : < 5.00
2. CN1CCN(C(=O)c2cc3c(-c4ccccc4)n[nH]c3s2)CC1 : < 4.70
3. N#CCNC(=O)c1ccc(-c2ccnc(Nc3ccc(N4CCOCC4)cc3)n2)cc1 : < 6.00

Now, please, on to the next compound.
Reading of pIC50 for CCn1ncc(Cl)c1-c1cc(C(=O)N[C@H](CN)Cc2ccc(F)cc2)sc1Cl with RAC-alpha serine/threonine-protein kinase (Homo sapiens): ≥ 8.60
